System: ATP;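 further: ATP exposure 15 min at 22 °C before imaging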
Test: switch fluorescence ratio, 500 uM ATP over buffer (Cy3 cluster intensity, sum of 5 cycles each) (fold (ratio)); higher = stronger signal-on switching upon ATP binding; sequences stand for … in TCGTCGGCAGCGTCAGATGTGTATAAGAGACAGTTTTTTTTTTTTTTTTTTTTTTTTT…TC
Condition Label: aptamer strand: ATP DNA aptamer (quencher-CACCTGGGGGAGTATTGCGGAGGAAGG + anchor), 100 nM annealed; ATP concentration: 500 uM
In this section, each of the sequences is paired with its reported switch fluorescence ratio.

# count of solved cases: 8
(Q) Need switch fluorescence ratio of ACCGGGGGGT , thanks.
(A) 1.37

(Q) Input ATGTCGATGC
(A) 1.01

(Q) Input GGTTGGAATG
(A) 1.08

(Q) Input ATTGCGGGCC
(A) 1.02

(Q) Input AGGGGTAGGC
(A) 0.989

(Q) Input TATTGGTTCG
(A) 1.03

(Q) Input CCTGTAAAGA
(A) 1.02

(Q) Input CCCGATTTTG
(A) 1.02

Further cases:
(Q) Need switch fluorescence ratio of TTATGCTTTT , thanks.
(A) 1

(Q) Input TATATGAGTT
(A) 0.963

(Q) Input TGTCGGTGTC
(A) 1.01

(Q) Input GGGAAATCGG
(A) 0.986

(Q) Input AAAATGGCTT
(A) 0.988

(Q) Input ATGGAAAAAG
(A) 0.963

(Q) Input TAAAGGGGAT
(A) 1.08

(Q) Input GCAAGACGTT
(A) 1.51

(Q) Input ATTTAATCCT
(A) 1.09

----------
Tested on: ATP;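 further: ATP exposure 15 min at 22 °C before imaging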
Test: switch fluorescence ratio, 500 uM ATP over buffer (Cy3 cluster intensity, sum of 5 cycles each) (fold (ratio)); higher = stronger signal-on switching upon ATP binding; sequences stand for … in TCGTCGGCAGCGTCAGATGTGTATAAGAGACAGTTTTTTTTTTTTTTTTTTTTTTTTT…TC
Condition Label: aptamer strand: ATP DNA aptamer (quencher-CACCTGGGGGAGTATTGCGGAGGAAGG + anchor), 100 nM annealed; ATP concentration: 500 uM
In this section, each of the sequences is paired with its reported switch fluorescence ratio.
Lab note: write the figure by itself, no unit.

# count of solved cases: 3
(Q) Need switch fluorescence ratio of TGCTTGTTAG , thanks.
(A) 0.989

(Q) Input AGTGAGTGCA
(A) 1.04

(Q) Input TGTTTGGGGG
(A) 1.01

Further cases:
(Q) Need switch fluorescence ratio of GATGTGCGTC , thanks.
(A) 1.01

(Q) Input GGGCGGGCTG
(A) 1.01

(Q) Input TGGGTGAATT
(A) 0.98

(Q) Input GCGGCCGTTG
(A) 0.965

(Q) Input TTGGGGTATG
(A) 1.01

----------
Tested on: ATP;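 further: ATP exposure 15 min at 22 °C before imaging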
Test: switch fluorescence ratio, 500 uM ATP over buffer (Cy3 cluster intensity, sum of 5 cycles each) (fold (ratio)); higher = stronger signal-on switching upon ATP binding; sequences stand for … in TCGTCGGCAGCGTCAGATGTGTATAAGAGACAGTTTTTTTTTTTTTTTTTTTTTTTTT…TC
Condition Label: aptamer strand: ATP DNA aptamer (quencher-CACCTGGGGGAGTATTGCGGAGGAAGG + anchor), 100 nM annealed; ATP concentration: 500 uM
In this section, each of the sequences is paired with its reported switch fluorescence ratio.
Lab note: write the figure by itself, no unit.

# count of solved cases: 10
(Q) ATP / switch fluorescence ratio / TTTTACTTAC : value?
(A) 1.25

(Q) Input TGTAGTAGCA
(A) 1.04

(Q) Input GAGGGTTAGT
(A) 0.987

(Q) Input GGGTGAGGTG
(A) 0.98

(Q) Input ATATACATGT
(A) 1.02

(Q) Input GGGGCAGTAG
(A) 1.04

(Q) Input GGGGGCCCCG
(A) 1

(Q) Input AGGGAGCAGT
(A) 1.02

(Q) Input AAAGTAGTAA
(A) 1.01

(Q) Input TGTGCGACGG
(A) 0.989

Further cases:
(Q) ATP / switch fluorescence ratio / GTGTTGGTTT : value?
(A) 0.986

(Q) Input CATTTTTTGG
(A) 0.998

(Q) Input TGAAGGATGG
(A) 1

(Q) Input TAGCAAAAGG
(A) 1.03

(Q) Input TAGGTGCGGT
(A) 0.989

(Q) Input AAGAACCCAG
(A) 1.05

(Q) Input GGGCTAGGCT
(A) 0.968

(Q) Input CATGGGGTAA
(A) 0.99

(Q) Input ACGGGCGGCA
(A) 1.16

(Q) Input AGGAGGGAG
(A) 1

(Q) Input AAATTTAAAT
(A) 1.02

(Q) Input TTGGTGTGTA
(A) 1

These data points were gathered from the supplement of paper PMC10126150.
